B1: library; a variant is named by its letters at N, in order (parent)
chain: AATGTTGTTGATGCAACCATAAAGTGATATTTAATAATTATTTATAATCAGCAACTTAACCACAAAACAACCATATATTGATATNTCACAAAACAACCATAANTTGATATTTTTGTGAATCGAGTATTTCAGCAAAACTACTGCAGTAAGAA

variants of: B1; assay: relative integration efficiency (T-RL orientation) vs wild-type transposon end (log2 (normalized fold change)); transposon end mutated: left end; higher = more efficient transposition; conditions: with VchCAST RNA-guided transposition machinery (E. coli BL21(DE3) host, lacZ target)
Label 0.0 if relative integration efficiency (log2) falls below -0.1; label 1.0 in every other case.

Some entries whose results are on file:
Enquiry: hey, is relative integration efficiency (log2) for this one >= -0.1? CG A119C T120G C121A G122T A123C G124T T125G
Return: 0.0

Enquiry: hey, is relative integration efficiency (log2) for this one >= -0.1? CG A34C T35C A36G T38C A40G T42C A44G T45C A46C A62G A65G A66C
Return: 0.0

Enquiry: hey, is relative integration efficiency (log2) for this one >= -0.1? CG T56A
Return: 0.0

Enquiry: hey, is relative integration efficiency (log2) for this one >= -0.1? AG T84G
Return: 0.0

Enquiry: hey, is relative integration efficiency (log2) for this one >= -0.1? CG C98A A99C T100G A101C
Return: 0.0

New cases:
Enquiry: hey, is relative integration efficiency (log2) for this one >= -0.1? CG A99T T100A
Return: 0.0

Enquiry: hey, is relative integration efficiency (log2) for this one >= -0.1? CG A36C A37C
Return: 1.0

Enquiry: hey, is relative integration efficiency (log2) for this one >= -0.1? CG A92C A93C
Return: 0.0

Enquiry: hey, is relative integration efficiency (log2) for this one >= -0.1? CG T9G G10T A11C T12G
Return: 0.0

Enquiry: hey, is relative integration efficiency (log2) for this one >= -0.1? CG A93T C94G
Return: 0.0
